target: T1, human CD3E&G complex (Sino Biological Inc., CT041-H0305H) (human, UniProt P07766 23-126; P09693 23-116); assay: BLI, antibody on sensor
T1 construct: bought heterodimer; also called human CD3E&G antigen
T1 sequence (P07766 23-126, chain 1 of 2): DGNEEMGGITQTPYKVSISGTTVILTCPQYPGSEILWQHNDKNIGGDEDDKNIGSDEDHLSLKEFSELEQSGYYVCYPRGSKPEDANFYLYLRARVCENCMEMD
T1 sequence (P09693 23-116, chain 2 of 2): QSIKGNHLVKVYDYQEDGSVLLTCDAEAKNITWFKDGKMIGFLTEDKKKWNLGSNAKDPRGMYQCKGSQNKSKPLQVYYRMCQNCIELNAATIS
experimental.endpoint: kon (M⁻¹ s⁻¹)
The answer is to be given in M⁻¹ s⁻¹; state only the numeric part.

A selection of reference data follows.
{"columns": ["binder", "measurement.unit", "kon"],
 "data": [
  ["hzsp34.91 (antibody, human IgG1, lambda, L234A L235A, V domains shown, CDR mutant of hzsp34.24; IgG1 L234A L235A, lambda) VH: EVQLVESGGGLVQPGGSLKLSCAASGFTFNTYAMNWVRQASGKGLEWVGRIRSKYNNYATYYADSVKDRFTISRDDSKSTLYLQMNSLKTEDTAVYYCARHGNFGGSYVSWFAYWGQGTTVTVSS VL: QAVVTQEPSLTVSPGGTVTLTCRSSTGAVTTSNYANWVQQKPGQAPRGLIGGTNKRAPGVPARFSGSLLGDKAALTLLGAQPEDEAEYYCALWYSNLWVFGQGTKLTVLG", "M⁻¹ s⁻¹", 228000],
  ["hzsp34.111 (antibody, human IgG1, lambda, L234A L235A, V domains shown, CDR mutant of hzsp34.24; IgG1 L234A L235A, lambda) VH: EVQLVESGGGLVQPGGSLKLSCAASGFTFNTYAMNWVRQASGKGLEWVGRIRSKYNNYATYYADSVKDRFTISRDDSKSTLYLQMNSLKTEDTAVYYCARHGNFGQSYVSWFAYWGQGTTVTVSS VL: QAVVTQEPSLTVSPGGTVTLTCRSSTGAVGGSNYANWVQQKPGQAPRGLIGGTNKRAPGVPARFSGSLLGDKAALTLLGAQPEDEAEYYCALWYSNLWVFGQGTKLTVLG", "M⁻¹ s⁻¹", 201000],
  ["hzsp34.83 (antibody, human IgG1, lambda, L234A L235A, V domains shown, CDR mutant of hzsp34.24; IgG1 L234A L235A, lambda) VH: EVQLVESGGGLVQPGGSLKLSCAASGFTFNTYAMNWVRQASGKGLEWVGRIRSKANNYATYYADSVKDRFTISRDDSKSTLYLQMNSLKTEDTAVYYCARHGNFGQSYVSWFAYWGQGTTVTVSS VL: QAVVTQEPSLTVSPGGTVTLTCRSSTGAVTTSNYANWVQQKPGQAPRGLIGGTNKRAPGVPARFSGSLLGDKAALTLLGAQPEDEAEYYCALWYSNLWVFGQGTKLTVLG", "M⁻¹ s⁻¹", 220000],
  ["hzsp34.113 (antibody, human IgG1, lambda, L234A L235A, V domains shown, CDR mutant of hzsp34.24; IgG1 L234A L235A, lambda) VH: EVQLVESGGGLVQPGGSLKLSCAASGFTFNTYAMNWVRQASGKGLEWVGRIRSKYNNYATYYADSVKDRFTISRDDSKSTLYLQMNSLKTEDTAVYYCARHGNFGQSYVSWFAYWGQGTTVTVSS VL: QAVVTQEPSLTVSPGGTVTLTCRSSTGAVTTSNYANWVQQKPGQAPRGLIGGTNKRAPGVPARFSGSLLGDKAALTLLGAQPEDEAEYYCALAASNLWVFGQGTKLTVLG", "M⁻¹ s⁻¹", 219000]
]}

Now take the following binder into account.
Identify kon associated with the binder hzsp34.97 (antibody, human IgG1, lambda, L234A L235A, V domains shown, CDR mutant of hzsp34.24; IgG1 L234A L235A, lambda) VH: EVQLVESGGGLVQPGGSLKLSCAASGFTFNTYAMNWVRQASGKGLEWVGRIRSKAGGYATYYADSVKDRFTISRDDSKSTLYLQMNSLKTEDTAVYYCARHGNFGQSYVSWFAYWGQGTTVTVSS VL: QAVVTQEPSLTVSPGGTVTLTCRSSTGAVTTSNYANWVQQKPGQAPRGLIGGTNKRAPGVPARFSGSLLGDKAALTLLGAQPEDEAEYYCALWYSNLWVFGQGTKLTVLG 135000
